experimental.target: EGFR on the surface of human tumour cells (A431, H292) (human, UniProt P00533 25-1210)
method.notes: cell-based or functional assay
# binarize % inhibition of EGFR phosphorylation at 100 nM binder, cell-based assay: threshold 80% inclusive, high side met, low side not met

E60 (designed binder) 10Fn3 domain: MGVSDVPRDLEVVAATPTSLLISWLQPLWRYQYYRITYGETGGNSPVQEFTVPGGLDTATISGLKPGVDYTITVYAVTDYKPHVDGPHAYHEYPISINYRTEIDKPSQ = met
E59 (designed binder) 10Fn3 domain: MGVSDVPRDLEVVAATPTSLLISWRARRLQYQYYRITYGETGGNSPVQEFTVPGMVTTATISGLKPGVDYTITVYAVTDFYNPATMEYTYQRTPISINYRTEIDKPSQ = not met

IN: Given the entry E63 (designed binder) 10Fn3 domain: MGVSDVPRDLEVVAATPTSLLISWDTSGASYQYYRITYGETGGNSPVQEFTVPYSVYTATISGLKPGVDYTITVYAVTDYYDPDSHYYNYNMVPISINYRTEIDKPSQ , answer whether its % inhibition of EGFR phosphorylation at 100 nM binder, cell-based assay meets or surpasses 80%.
OUT: not met

IN: Given the entry E67 (designed binder) 10Fn3 domain: MGVSDVPRDLEVVAATPTSLLISWSSVMGLYQYYRITYGETGGNSPVQEFTVPYDVYTATISGLKPGVDYTITVYAVTDYYNPSTYEYKYNTTPISINYRTEIDKPSQ , answer whether its % inhibition of EGFR phosphorylation at 100 nM binder, cell-based assay meets or surpasses 80%.
OUT: not met

Entry source: patent US20180037631A1
